target: FXa (Homo sapiens)
Construct: consisting of FXa, Kallikrein 1, MMP 1
Sequence (P00742 235-488 limits assumed): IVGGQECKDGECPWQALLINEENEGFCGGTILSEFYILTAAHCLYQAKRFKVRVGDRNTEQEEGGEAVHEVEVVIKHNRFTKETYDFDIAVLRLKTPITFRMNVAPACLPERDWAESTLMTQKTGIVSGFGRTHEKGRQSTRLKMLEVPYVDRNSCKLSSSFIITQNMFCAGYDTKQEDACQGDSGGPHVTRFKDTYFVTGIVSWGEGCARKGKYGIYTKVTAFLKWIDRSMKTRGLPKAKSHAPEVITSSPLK
Sequence (P00742 41-179 partner limits assumed): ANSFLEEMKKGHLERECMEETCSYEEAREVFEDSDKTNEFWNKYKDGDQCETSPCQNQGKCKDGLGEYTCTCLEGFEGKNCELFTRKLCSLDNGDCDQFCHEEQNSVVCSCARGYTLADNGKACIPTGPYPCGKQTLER
method description: Non-TMPRSS2 protease panel: FXa
Format: biochemical
experimental parameters: Factor Xa; 10-dose, 3-fold from 10 μM
Description: Biochemical activity of compound 1 (racemic mixture, batch 1), compound 3 (racemic), compound 11, and compound 2 (enantiomer 1, batch 1) in proteases indicated in Table 21, Table 22, Table 23, and Table 24, respectively, were measured by testing the compounds in a 10-dose IC50 with a 3-fold series dilution starting at 10 μM against the proteases. […]
pIC50: −log10 of the molar value.
measurement name: pIC50

Enquiry: Which measured pIC50 value corresponds to COc1ccc2nc(C(Cc3cccc(C(=N)N)c3)NS(=O)(=O)c3ccccc3)sc2c1 (stereo not shown) ?
Return: < 5.00

* * *

target: FXIa (Homo sapiens)
Construct: FVIIa, Fxa, FXIa, Furin
Sequence (P03951 388-625 limits assumed): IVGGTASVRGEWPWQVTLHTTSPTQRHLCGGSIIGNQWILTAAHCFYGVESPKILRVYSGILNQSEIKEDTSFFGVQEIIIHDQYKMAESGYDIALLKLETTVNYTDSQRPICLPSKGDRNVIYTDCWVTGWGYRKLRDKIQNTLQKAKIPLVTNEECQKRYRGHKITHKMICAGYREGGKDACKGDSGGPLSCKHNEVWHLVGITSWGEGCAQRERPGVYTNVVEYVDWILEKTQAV
Sequence (P03951 19-387 partner limits assumed): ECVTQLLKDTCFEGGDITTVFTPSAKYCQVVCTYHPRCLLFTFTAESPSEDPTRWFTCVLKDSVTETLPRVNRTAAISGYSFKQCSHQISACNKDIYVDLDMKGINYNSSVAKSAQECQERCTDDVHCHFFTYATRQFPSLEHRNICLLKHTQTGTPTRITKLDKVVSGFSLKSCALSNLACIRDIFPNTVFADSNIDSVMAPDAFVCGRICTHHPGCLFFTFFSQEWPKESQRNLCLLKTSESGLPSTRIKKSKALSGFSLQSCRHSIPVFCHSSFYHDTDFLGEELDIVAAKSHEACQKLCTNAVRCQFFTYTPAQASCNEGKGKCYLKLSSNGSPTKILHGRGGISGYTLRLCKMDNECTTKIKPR
method description: Non-TMPRSS2 protease panel: FXIa
Format: biochemical
experimental parameters: Factor XIa; 10-dose, 3-fold from 10 μM
measurement name: IC50

Enquiry: Which measured IC50 value corresponds to COc1ccc2nc(C(Cc3cccc(C(=N)N)c3)NS(=O)(=O)c3ccccc3)sc2c1 (stereo not shown) [Compound 11] ?
Return: > 10 µM

* * *

# pIC50 measurements, system: Tryptase b2 (Homo sapiens)
# Sequence (P20231 31-275): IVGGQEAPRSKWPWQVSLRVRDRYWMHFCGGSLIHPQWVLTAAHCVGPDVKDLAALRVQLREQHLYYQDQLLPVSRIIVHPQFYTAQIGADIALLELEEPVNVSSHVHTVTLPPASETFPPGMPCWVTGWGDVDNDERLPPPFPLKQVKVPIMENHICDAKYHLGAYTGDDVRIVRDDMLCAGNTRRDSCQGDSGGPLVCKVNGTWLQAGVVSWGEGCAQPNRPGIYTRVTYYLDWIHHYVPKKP
pIC50: −log10 of the molar value.

Record excerpt, results attached:
N=C(N)c1cccc(CC(NS(=O)(=O)c2ccccc2)c2nc3ccccc3s2)c1 (racemic) [1 (racemic mixture, batch 1)] :: < 5.00
N=C(N)c1cccc(CC(NS(=O)(=O)c2cccc(-c3ccc(Cl)cc3Cl)c2)c2nc3ccccc3s2)c1 (racemic) [3 (racemic)] :: > 5.00
COc1ccc2nc(C(Cc3cccc(C(=N)N)c3)NS(=O)(=O)c3ccccc3)sc2c1 (stereo not shown) :: < 5.00

Now for a further molecule.
Enquiry: Which measured pIC50 value corresponds to N=C(N)c1cccc(C[C@H](NS(=O)(=O)c2ccccc2)c2nnco2)c1 (single isomer, unassigned) [Compound 2 (enantiomer 1, batch 1)] ?
Return: < 5.00

* * *

target: Recombinant human TMPRSS2 protein (106-492 aa) (Homo sapiens, UniProt O15393)
Construct: Human TMPRSS2-(AA 106-492)-
Sequence (O15393 106-492): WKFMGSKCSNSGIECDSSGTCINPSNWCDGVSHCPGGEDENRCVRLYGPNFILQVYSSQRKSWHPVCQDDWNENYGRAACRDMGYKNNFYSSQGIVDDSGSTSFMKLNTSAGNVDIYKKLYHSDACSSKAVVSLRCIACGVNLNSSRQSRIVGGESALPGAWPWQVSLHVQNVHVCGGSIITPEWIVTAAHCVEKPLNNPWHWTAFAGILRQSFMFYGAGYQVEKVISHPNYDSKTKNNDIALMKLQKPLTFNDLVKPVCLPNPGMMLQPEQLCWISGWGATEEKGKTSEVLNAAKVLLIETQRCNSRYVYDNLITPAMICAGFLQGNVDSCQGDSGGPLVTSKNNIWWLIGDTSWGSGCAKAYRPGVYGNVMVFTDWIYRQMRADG
method description: TMPRSS2 Assay 1 (Example 41), fluorogenic Boc-Gln-Ala-Arg-AMC cleavage
experimental parameters: TMPRSS2 10 nM, substrate 25 μM, 20 min pre-incubation
measurement name: IC50

Record excerpt, results attached:
N=C(N)c1cccc(CC(NS(=O)(=O)c2ccccc2)c2nc3ccccc3s2)c1 (single isomer, unassigned) [Compound 1 (enantiomer 1, batch 1)] :: > 10 µM
N=C(N)c1cccc(C[C@H](NS(=O)(=O)c2ccccc2)c2nnco2)c1 (single isomer, unassigned) [Compound 2 (enantiomer 1, batch 1)] :: > 10 µM
COc1ccc2nc(C(Cc3cccc(C(=N)N)c3)NS(=O)(=O)c3ccccc3)sc2c1 (stereo not shown) [Compound 8] :: < 10 µM

Enquiry: Which measured IC50 value corresponds to N=C(N)c1cccc(CC(NS(=O)(=O)c2ccccc2)c2nc3ccc(C(F)(F)F)cc3s2)c1 (single isomer, unassigned) [14 (enantiomer 2)] ?
Return: < 10 µM

Enquiry: Also N=C(N)c1cccc(CC(NS(=O)(=O)c2ccccc2)c2nc3ccc(O)cc3s2)c1 (stereo not shown) [Compound 20] ?
Return: < 10 µM

Enquiry: Also N=C(N)c1cccc(CC(NS(=O)(=O)c2ccccc2)c2nc3cccc(Cl)c3s2)c1 (stereo not shown) [Compound 13] ?
Return: < 10 µM

Enquiry: Also Cc1ccc2sc(C(Cc3cccc(C(=N)N)c3)NS(=O)(=O)c3ccccc3)nc2c1 (stereo not shown) [Compound 9] ?
Return: < 10 µM

* * *

# IC50 measurements, system: Urokinase (Homo sapiens, UniProt P00749)

N=C(N)c1cccc(CC(NS(=O)(=O)c2cccc(-c3ccc(Cl)cc3Cl)c2)c2nc3ccccc3s2)c1 (racemic) [3 (racemic)] :: > 10 µM
COc1ccc2nc(C(Cc3cccc(C(=N)N)c3)NS(=O)(=O)c3ccccc3)sc2c1 (stereo not shown) [Compound 11] :: < 10 µM
N=C(N)c1cccc(C[C@H](NS(=O)(=O)c2ccccc2)c2nnco2)c1 (single isomer, unassigned) [Compound 2 (enantiomer 1, batch 1)] :: > 10 µM

Now for a further compound.
Enquiry: Hi! What's the reported IC50 for N=C(N)c1cccc(CC(NS(=O)(=O)c2ccccc2)c2nc3ccccc3s2)c1 (racemic) [1 (racemic mixture, batch 1)] on Urokinase (Homo sapiens, UniProt P00749)?
Return: > 10 µM

* * *

target: MMP 2 (Homo sapiens, UniProt P08253)
Sequence (P08253 110-660): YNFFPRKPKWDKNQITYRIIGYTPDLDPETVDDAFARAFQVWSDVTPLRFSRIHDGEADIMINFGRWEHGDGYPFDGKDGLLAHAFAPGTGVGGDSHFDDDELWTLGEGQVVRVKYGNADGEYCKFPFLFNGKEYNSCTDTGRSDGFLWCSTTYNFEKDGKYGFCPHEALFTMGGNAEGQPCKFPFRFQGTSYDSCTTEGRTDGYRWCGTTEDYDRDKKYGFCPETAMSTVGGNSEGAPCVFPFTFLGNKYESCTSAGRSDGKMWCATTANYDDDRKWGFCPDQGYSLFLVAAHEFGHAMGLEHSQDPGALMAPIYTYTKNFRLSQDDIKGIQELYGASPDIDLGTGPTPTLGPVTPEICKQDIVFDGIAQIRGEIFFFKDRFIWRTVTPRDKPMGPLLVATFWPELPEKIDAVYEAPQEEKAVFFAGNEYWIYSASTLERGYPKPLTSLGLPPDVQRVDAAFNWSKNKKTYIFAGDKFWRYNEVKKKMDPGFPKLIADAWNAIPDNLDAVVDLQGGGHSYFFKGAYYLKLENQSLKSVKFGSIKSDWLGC
pIC50: −log10 of the molar value.
pIC50 listing for selected compounds.

Record excerpt, results attached:
N=C(N)c1cccc(C[C@H](NS(=O)(=O)c2ccccc2)c2nnco2)c1 (single isomer, unassigned) [Compound 2 (enantiomer 1, batch 1)] :: < 5.00
N=C(N)c1cccc(CC(NS(=O)(=O)c2ccccc2)c2nc3ccccc3s2)c1 (racemic) [1 (racemic mixture, batch 1)] :: < 5.00

Enquiry: Which measured pIC50 value corresponds to COc1ccc2nc(C(Cc3cccc(C(=N)N)c3)NS(=O)(=O)c3ccccc3)sc2c1 (stereo not shown) [Compound 11] ?
Return: < 5.00

Enquiry: Also N=C(N)c1cccc(CC(NS(=O)(=O)c2cccc(-c3ccc(Cl)cc3Cl)c2)c2nc3ccccc3s2)c1 (racemic) [3 (racemic)] ?
Return: > 5.00

* * *

target: FXa (Homo sapiens)
Construct: consisting of FXa, Kallikrein 1, MMP 1
method description: Non-TMPRSS2 protease panel: FXa
Format: biochemical
experimental parameters: FXa; 10-dose, 3-fold from 10 μM
IC50 listing for selected compounds.

N=C(N)c1cccc(CC(NS(=O)(=O)c2ccccc2)c2nc3ccccc3s2)c1 (racemic) [1 (racemic mixture, batch 1)] :: > 10 µM

Enquiry: Which measured IC50 value corresponds to N=C(N)c1cccc(CC(NS(=O)(=O)c2cccc(-c3ccc(Cl)cc3Cl)c2)c2nc3ccccc3s2)c1 (racemic) [3 (racemic)] ?
Return: < 10 µM

Enquiry: Also N=C(N)c1cccc(C[C@H](NS(=O)(=O)c2ccccc2)c2nnco2)c1 (single isomer, unassigned) [Compound 2 (enantiomer 1, batch 1)] ?
Return: > 10 µM

* * *

IC50 listing for selected molecules.
Test system: Trypsin
method description: Non-TMPRSS2 protease panel: Trypsin
Type: biochemical
experimental parameters: 10-dose, 3-fold from 10 μM

Enquiry: Which measured IC50 value corresponds to COc1ccc2nc(C(Cc3cccc(C(=N)N)c3)NS(=O)(=O)c3ccccc3)sc2c1 (stereo not shown) ?
Return: > 10 µM

Enquiry: Also N=C(N)c1cccc(C[C@H](NS(=O)(=O)c2ccccc2)c2nnco2)c1 (single isomer, unassigned) [Compound 2 (enantiomer 1, batch 1)] ?
Return: > 10 µM

Enquiry: Also N=C(N)c1cccc(CC(NS(=O)(=O)c2cccc(-c3ccc(Cl)cc3Cl)c2)c2nc3ccccc3s2)c1 (racemic) [3 (racemic)] ?
Return: < 10 µM

Enquiry: Also N=C(N)c1cccc(CC(NS(=O)(=O)c2ccccc2)c2nc3ccccc3s2)c1 (racemic) [1 (racemic mixture, batch 1)] ?
Return: > 10 µM

* * *

# IC50 measurements, system: Kallikrein 12 (Homo sapiens)
# Sequence (Q9UKR0 18-248): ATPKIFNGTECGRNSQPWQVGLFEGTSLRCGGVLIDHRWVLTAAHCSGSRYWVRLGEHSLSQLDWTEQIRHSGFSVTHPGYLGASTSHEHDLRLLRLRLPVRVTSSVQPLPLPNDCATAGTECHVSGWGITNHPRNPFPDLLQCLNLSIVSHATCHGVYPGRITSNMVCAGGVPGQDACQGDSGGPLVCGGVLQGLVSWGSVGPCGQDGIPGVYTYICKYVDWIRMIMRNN

COc1ccc2nc(C(Cc3cccc(C(=N)N)c3)NS(=O)(=O)c3ccccc3)sc2c1 (stereo not shown) :: > 10 µM
N=C(N)c1cccc(C[C@H](NS(=O)(=O)c2ccccc2)c2nnco2)c1 (single isomer, unassigned) [Compound 2 (enantiomer 1, batch 1)] :: > 10 µM
N=C(N)c1cccc(CC(NS(=O)(=O)c2ccccc2)c2nc3ccccc3s2)c1 (racemic) [1 (racemic mixture, batch 1)] :: > 10 µM

Now for a further compound.
Enquiry: Which measured IC50 value corresponds to N=C(N)c1cccc(CC(NS(=O)(=O)c2cccc(-c3ccc(Cl)cc3Cl)c2)c2nc3ccccc3s2)c1 (racemic) [3 (racemic)] ?
Return: > 10 µM

FYI, the data here is from patent US20240132457A1.
